Species: Homo sapiens
assay protocol: Selectivity ratio of Ki for human recombinant YEATS3 to Ki for human recombinant YEATS4
Ratio Ki of 20 or higher: Fulfilled. Under 20: Not fulfilled.

In plain terms: is recorded Ratio Ki at least 20 for CCNC(=O)c1ccc2c(C3CCN(CC4(O)C5CC6CC(C5)CC4C6)CC3)c(C)nn2c1 (centres undefined) ?
Fulfilled

Quick check: does `CCNC(=O)c1ccc2c(C3CCN(CC4(O)CCCCC4)CC3)c(-c3cccn(C)c3=O)nn2c1` have Ratio Ki greater than or equal to 20?
Not fulfilled

Quick check: does `CCNC(=O)c1ccc2c(c1)nc(C)n2[C@H]1CCN(CC2(O)CCCCC2)C[C@@H]1C` have Ratio Ki greater than or equal to 20?
Not fulfilled

Does Ratio Ki meet or surpass 20 for `CCNC(=O)c1ccc2c([C@H]3CCN(CC4(O)CCOCC4)C[C@@H]3C)c(C)nn2c1` ?
Fulfilled

Does the reported Ratio Ki for `CCNC(=O)c1ccc2c(c1)nc(-c1cccn(C)c1=O)n2[C@H]1CCN(CC2(O)CCCCC2)C[C@@H]1C` fall at or above the 20 mark?
Not fulfilled

hey, is Ratio Ki for this one >= 20? `CCNC(=O)c1ccc2c(c1)nc(C)n2C1CCN(CC2(O)CCCCC2)CC1`
Not fulfilled

Reported Ratio Ki at or above 20? `Cc1nn2cc(C(=O)NCC3CC3)ccc2c1[C@H]1CCN(CC2(O)CCOCC2)C[C@@H]1C`
Fulfilled

Check the entry `CCNC(=O)c1ccc2c(C3CCN(CC4(O)CCCCC4)CC3)c(C)nn2c1` : does Ratio Ki equal or exceed 20?
Fulfilled

# bool: Ratio Ki of `CCNC(=O)c1ccc2c([C@H]3CCN(CC4(O)CCCCC4)C[C@@H]3C)c(C)nn2c1` >= 20
Not fulfilled

----------
assay protocol: Half life in rat at 3 mg/kg, po
Format: ADME, organism-based
experimental conditions: in vivo
assay endpoint: half-life (h)
Entry rule: numbers only, all in h.

Please look up its half-life: `CCNC(=O)c1ccc2c(c1)nc(C(F)F)n2[C@H]1CCN(CC2(O)CCCCC2)C[C@@H]1C`
1.4

----------
Some molecules, each annotated with its measured Kd.
tested target: YEATS domain-containing protein 4 (Homo sapiens)
Sequence (O95619 whole entry, the tested form may be a part): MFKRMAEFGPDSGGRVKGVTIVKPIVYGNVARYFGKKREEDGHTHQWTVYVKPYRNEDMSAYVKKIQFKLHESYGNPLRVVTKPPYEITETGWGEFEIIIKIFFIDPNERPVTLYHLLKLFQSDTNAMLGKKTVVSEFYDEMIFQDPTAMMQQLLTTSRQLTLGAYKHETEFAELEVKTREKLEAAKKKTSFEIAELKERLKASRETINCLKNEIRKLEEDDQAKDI
assay protocol: Binding affinity to C-terminal biotin-tagged YEATS4 (unknown origin) by SPR analysis
Just the number please, in nM, no unit attached.

Below: 3 molecules and their reported Kd.
Requested read-out: Kd. Entry: `CCNC(=O)c1ccc2c(c1)nc(C)n2[C@H]1CCN(CC2(O)CCCCC2)C[C@@H]1C`
530

Param item = `CCNC(=O)c1ccc2c(c1)nc(C(F)F)n2[C@H]1CCN(CC2(O)CCCCC2)C[C@@H]1C` ; retrieve measured Kd.
297

Look at this molecule and give its reported Kd. CCNC(=O)c1ccc2c(C3CCN(CC4(O)C5CC6CC(C5)CC4C6)CC3)c(C)nn2c1 (centres undefined)
103

Turning now to a further record.
Reported Kd for `CCNC(=O)c1ccc2c([C@H]3CCN(CC4(O)CCCCC4)C[C@@H]3C)c(C)nn2c1` : what is it?
340

----------
assay protocol: Volume of distribution at steady state in mouse at 1 mg/kg, iv
Type: ADME, organism-based
experimental conditions: in vivo, read-out: Vdss
assay endpoint: Vd (L/kg)
Note: unit L/kg is implicit; provide only the numeric part.

Look up Vd: `CCNC(=O)c1ccc2c(c1)nc(C(F)F)n2[C@H]1CCN(CC2(O)CCCCC2)C[C@@H]1C`
7.8

Reference for the values: ChEMBL document CHEMBL5316283
